DC50 by entry:
# measured_target: androgen receptor (Homo sapiens, UniProt P10275, T878A)
# Construct: Several compounds were selected and serial diluted (10×) with RPMI medium for treating LNCaP.FGC cells; host or cells: LNCaP.FGC
# Sequence (P10275 whole entry T878A): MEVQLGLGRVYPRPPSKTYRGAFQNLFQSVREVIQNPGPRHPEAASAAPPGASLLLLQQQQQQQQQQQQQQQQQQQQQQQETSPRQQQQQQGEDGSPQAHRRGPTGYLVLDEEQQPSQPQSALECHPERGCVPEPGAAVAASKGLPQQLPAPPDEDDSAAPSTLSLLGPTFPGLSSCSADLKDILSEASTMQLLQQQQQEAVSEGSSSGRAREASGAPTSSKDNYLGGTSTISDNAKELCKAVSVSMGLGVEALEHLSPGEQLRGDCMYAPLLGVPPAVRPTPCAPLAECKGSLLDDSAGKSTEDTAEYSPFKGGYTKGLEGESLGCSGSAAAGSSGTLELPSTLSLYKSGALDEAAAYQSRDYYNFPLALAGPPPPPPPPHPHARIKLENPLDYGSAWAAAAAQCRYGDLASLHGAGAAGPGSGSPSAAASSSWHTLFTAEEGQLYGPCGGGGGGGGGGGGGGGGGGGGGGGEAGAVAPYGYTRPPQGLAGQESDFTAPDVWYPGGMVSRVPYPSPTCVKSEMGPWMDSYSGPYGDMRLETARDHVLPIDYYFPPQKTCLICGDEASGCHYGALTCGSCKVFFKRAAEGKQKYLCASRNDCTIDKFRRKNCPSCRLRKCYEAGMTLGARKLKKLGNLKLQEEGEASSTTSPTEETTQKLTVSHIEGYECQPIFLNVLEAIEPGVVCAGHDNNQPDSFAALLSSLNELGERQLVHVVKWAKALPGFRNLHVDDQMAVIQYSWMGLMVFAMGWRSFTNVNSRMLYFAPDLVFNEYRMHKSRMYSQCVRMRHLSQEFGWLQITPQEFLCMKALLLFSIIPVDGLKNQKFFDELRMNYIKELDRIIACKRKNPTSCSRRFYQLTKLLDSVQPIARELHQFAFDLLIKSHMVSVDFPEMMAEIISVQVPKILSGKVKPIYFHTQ
# Sequence (Q96SW2 whole entry partner): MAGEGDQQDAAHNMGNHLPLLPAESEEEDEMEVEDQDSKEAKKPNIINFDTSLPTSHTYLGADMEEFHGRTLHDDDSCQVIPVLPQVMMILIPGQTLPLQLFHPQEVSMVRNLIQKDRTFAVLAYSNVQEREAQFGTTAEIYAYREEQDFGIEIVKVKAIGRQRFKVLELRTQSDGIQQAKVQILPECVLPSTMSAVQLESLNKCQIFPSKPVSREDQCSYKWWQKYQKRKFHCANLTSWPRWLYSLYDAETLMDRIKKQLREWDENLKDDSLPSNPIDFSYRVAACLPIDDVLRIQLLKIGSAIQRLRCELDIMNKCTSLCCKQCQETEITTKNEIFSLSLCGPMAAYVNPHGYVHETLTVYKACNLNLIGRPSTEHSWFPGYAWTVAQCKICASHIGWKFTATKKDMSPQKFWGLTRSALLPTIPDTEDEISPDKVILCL
# test_summary: Androgen receptor degradation assay using Western blot analysis in LNCaP.FGC cells
# Assay type: cell-based
# setup_conditions: concentration needed for 50% AR degradation, 24 hr treatment, read-out: AR DC50
recorded_endpoint: DC50

[
  {
    "molecule": "Cn1c2c(c3cc(N4CCN(CC5CCN(c6ccc(C(=O)N[C@H]7CC[C@H](Oc8ccc(C#N)c(Cl)c8)CC7)nn6)CC5)CC4)ccc31)C(=O)N(C1CCC(=O)NC1=O)C2=O (stereo partly shown)",
    "recorded_endpoint": "DC50",
    "result": "> 100 nM"
  },
  {
    "molecule": "Cn1c2c(c3ccc(N4CCN(CC5CN(c6ccc(C(=O)N[C@H]7CC[C@H](Oc8ccc(C#N)c(Cl)c8)CC7)nn6)C5)CC4)cc31)C(=O)N(C1CCC(=O)NC1=O)C2=O (stereo partly shown)",
    "recorded_endpoint": "DC50",
    "result": "< 10 nM"
  },
  {
    "molecule": "Cn1c2c(c3ccc(N4CCN(CC5CCN(c6ccc(C(=O)N[C@H]7C(C)(C)[C@H](Oc8ccc(C#N)c(Cl)c8)C7(C)C)cn6)CC5)CC4)cc31)C(=O)N(C1CCC(=O)NC1=O)C2=O (stereo partly shown)",
    "recorded_endpoint": "DC50",
    "result": "10 to 25 nM"
  },
  {
    "molecule": "Cn1c2c(c3cc(N4CCN(CC5CN(c6ccc(C(=O)N[C@H]7CC[C@H](Oc8ccc(C#N)c(Cl)c8)CC7)nn6)C5)CC4)ccc31)C(=O)N(C1CCC(=O)NC1=O)C2=O (stereo partly shown)",
    "recorded_endpoint": "DC50",
    "result": "25 to 100 nM"
  },
  {
    "molecule": "Cn1c2c(c3ccc(N4CCN(CC5CCN(c6ccc(C(=O)N[C@H]7CC[C@H](Oc8ccc(C#N)c(Cl)c8)CC7)nn6)CC5)CC4)cc31)C(=O)N(C1CCC(=O)NC1=O)C2=O (stereo partly shown)",
    "recorded_endpoint": "DC50",
    "result": "< 10 nM"
  },
  {
    "molecule": "Cn1c2c(c3cc(N4CCN(CC5CCN(c6ccc(C(=O)N[C@H]7CC[C@@H](Oc8ccc(C#N)c(Cl)c8)CC7)nn6)CC5)CC4)ccc31)C(=O)N(C1CCC(=O)NC1=O)C2=O (stereo partly shown)",
    "recorded_endpoint": "DC50",
    "result": "25 to 100 nM"
  },
  {
    "molecule": "Cn1c2c(c3ccc(C4CCN(CC5CCN(c6ccc(C(=O)N[C@H]7CC[C@@H](Oc8ccc(C#N)c(Cl)c8)CC7)nn6)CC5)CC4)cc31)C(=O)N(C1CCC(=O)NC1=O)C2=O (stereo partly shown)",
    "recorded_endpoint": "DC50",
    "result": "< 10 nM"
  },
  {
    "molecule": "Cn1c2c(c3ccc(C4CCN(CC5CN(c6ccc(C(=O)N[C@H]7CC[C@H](Oc8ccc(C#N)c(Cl)c8)CC7)nn6)C5)CC4)cc31)C(=O)N(C1CCC(=O)NC1=O)C2=O (stereo partly shown)",
    "recorded_endpoint": "DC50",
    "result": "< 10 nM"
  },
  {
    "molecule": "Cn1c2c(c3ccc(C4CCN(CC5CCN(c6ccc(C(=O)N[C@H]7CC[C@H](Oc8ccc(C#N)c(Cl)c8)CC7)nn6)CC5)CC4)cc31)C(=O)N(C1CCC(=O)NC1=O)C2=O (stereo partly shown)",
    "recorded_endpoint": "DC50",
    "result": "10 to 25 nM"
  },
  {
    "molecule": "Cn1c2c(c3ccc(N4CCN(CC5CCN(c6ccc(C(=O)N[C@H]7C(C)(C)[C@@H](Oc8ccc(C#N)c(Cl)c8)C7(C)C)cn6)CC5)CC4)cc31)C(=O)N(C1CCC(=O)NC1=O)C2=O (stereo partly shown)",
    "recorded_endpoint": "DC50",
    "result": "25 to 100 nM"
  },
  {
    "molecule": "Cn1c2c(c3ccc(C4CCN(CC5CCN(c6ccc(C(=O)N[C@H]7CC[C@H](Oc8ccc(C#N)c(Cl)c8)CC7)nn6)C5)CC4)cc31)C(=O)N(C1CCC(=O)NC1=O)C2=O (stereo partly shown)",
    "recorded_endpoint": "DC50",
    "result": "10 to 25 nM"
  },
  {
    "molecule": "Cn1c2c(c3ccc(N4CCN(CC5CCN(c6ccc(C(=O)N[C@H]7CC[C@@H](Oc8ccc(C#N)c(Cl)c8)CC7)nn6)CC5)CC4)cc31)C(=O)N(C1CCC(=O)NC1=O)C2=O (stereo partly shown)",
    "recorded_endpoint": "DC50",
    "result": "10 to 25 nM"
  },
  {
    "molecule": "Cn1c2c(c3ccc(N4CCN(CC5CCN(c6ncc(C(=O)N[C@H]7CC[C@H](Oc8ccc(C#N)c(Cl)c8)CC7)cn6)CC5)CC4)cc31)C(=O)N(C1CCC(=O)NC1=O)C2=O (stereo partly shown)",
    "recorded_endpoint": "DC50",
    "result": "10 to 25 nM"
  }
]

Data provenance is patent US20260248926A1.
